# PROTOCOL_DESCRIPTION: endothelial E-selectin expression blockers – imaging, HUVEC, immunofluorescence, MLSMR starter and 10KST1 sets, primary screen (AID 487);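 note: signal is fraction of cell area covered by stained E-selectin grains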
# DETAILS: HUVEC TNFalpha-induced E-selectin immunofluorescence imaging, at 2 µM; active compounds read high
Would you mind telling me the reported inhibition of each entry?
Give the quantity in %, number only.

I would be grateful if you could share the reported inhibition for "COc1ccc(N2CCN(CCCNC(=O)C3(S(=O)(=O)c4ccc(Cl)cc4)CC3)CC2)cc1" .
-86

I would be grateful if you could share the reported inhibition for Nc1c(S(=O)(=O)c2cccs2)c2nc3ccccc3nc2n1CC1CCCO1 (centres undefined) .
-71.1

I would be grateful if you could share the reported inhibition for "COC(=O)CS(=O)(=O)c1nnc([C@H](Cc2ccccc2)NC(=O)OC(C)(C)C)o1" .
38.4

I would be grateful if you could share the reported inhibition for "Cc1cc(-c2ccccc2)c(C#N)c(N)n1" .
-11.3

----------
# ASSAY_SYSTEM: Alpha-2C adrenergic receptor (Homo sapiens)
# PROTOCOL_DESCRIPTION: compounds altering alpha2C-coupled GIRK flux – cell-based, HEK293 alpha2C/GIRK1/2, thallium flux, primary screen (AID 624);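 note: slope of fluorescence ratio to pre-addition baseline per second over 15 to 24 s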
# DETAILS: thallium flux BTC fluorescence, at 10 µM, actives lie on both sides
ATTRIBUTE_MEASURED: slope
Note: the reply should be a number with no unit written.

I would be grateful if you could share the reported slope for "COc1ccc(CCNC(=O)c2ccncc2)cc1OC" .
0.00561

I would be grateful if you could share the reported slope for "COc1ccc(-c2nnc(-c3ccc(N)cc3)o2)cc1" .
0.00409

I would be grateful if you could share the reported slope for "COc1ccccc1-n1c(=O)[nH]c2c(C(N)=O)nc(-c3cccnc3)nc21" .
0.00612

I would be grateful if you could share the reported slope for "CCc1nnc(SCc2cn3c(C)cc(C)nc3n2)n1N" .
0.00669

I would be grateful if you could share the reported slope for "Cc1cc(NC(=O)c2cnn3c(C(F)F)cc(C4CC4)nc23)no1" .
0.00638

I would be grateful if you could share the reported slope for "COc1ccc(C)cc1NC(=O)CSc1nnnn1Cc1ccccc1" .
0.00685

I would be grateful if you could share the reported slope for "Cc1c(NC(=O)c2ccc(Br)o2)c(=O)n(-c2ccccc2)n1C" .
0.00344

I would be grateful if you could share the reported slope for "CCn1nc(C(=O)OCC(=O)N2CCc3ccccc32)c2ccccc2c1=O" .
0.00506

----------
# PROTOCOL_DESCRIPTION: reduction of polyQ htt aggregates in cells – imaging, exon1htt(103Q)mCFP cells, high-content imaging, primary screen (AID 483);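 note: compound exposure lasted 3 days before fixation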
# DETAILS: exon1htt(103Q)mCFP cell line, aggregate imaging, at 2 µM
Calls of active or inactive are those of the source.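 Rule for the calls: active = visual image review flags a hit and inhibition of aggregation exceeds 20%; inconclusive = visual hit but inhibition at or below 20%; inactive = no hit on visual image review.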
Could you please pick one outcome from this set? active, inactive

Please share the test call associated with "Cc1cc(C(F)(F)F)nn1Cc1ccc(C(=O)NCc2ccco2)o1" .
inactive

Please share the test call associated with "CC1(C)CC(=O)c2sc(NS(C)(=O)=O)nc2C1" .
inactive

Please share the test call associated with "Cc1nnc(SCc2cn3ccsc3n2)n(N)c1=O" .
inactive

Please share the test call associated with O=C(Nc1ccc2c(c1)OCCO2)C1CCCN1S(=O)(=O)c1cccc2cccnc12 (stereo not drawn) .
inactive

Please share the test call associated with "Cc1ccc(S(=O)(=O)N(CCO)c2cc3c(s2)CCCC3)cc1" .
inactive

Please share the test call associated with "CCOC(=O)N1CCN(c2cc(=O)n(-c3ccccc3Cl)c(=O)[nH]2)CC1" .
inactive

Please share the test call associated with "O=C(Nc1ccc2c(c1)OCO2)c1ccc(CN2CCOCC2)cc1" .
inactive

Please share the test call associated with "COCCn1c(SCC(=O)Nc2cccc(OC)c2)nnc1-c1ccc(Cl)cc1" .
inactive

Please share the test call associated with "O=C1C(Cl)=C(N2CCOCC2)C(=O)N1CCc1ccccc1" .
inactive

Please share the test call associated with COc1ccc(C2c3sc(=O)[nH]c3SC3C4CCC(C4)C23)cc1 (stereo not drawn) .
inactive

Please share the test call associated with "Cc1c(C(=O)NCc2cccnc2)oc2ccc(S(=O)(=O)N3CCCCC3)cc12" .
active

Please share the test call associated with "CSc1nnc(-c2ccc(NC(=O)CCc3ccccc3)cc2)n1C" .
inactive

Please share the test call associated with "CCOc1ccc(-c2cc(CCCC(=O)N3CCN(c4ccc(OC)cc4)CC3)no2)cc1" .
inactive

Please share the test call associated with "CCSc1nnc(NC(=O)CSc2nnc(Cc3cccn3C)n2-c2ccc(C)cc2)s1" .
inactive

Please share the test call associated with "CCN(C(=O)c1cc(Cl)ccc1OC)C1CCCCC1" .
inactive

Please share the test call associated with CC(=O)NC(Cc1ccc(C)cc1)C(=O)NC1CCN(C(=O)c2cnccn2)CC1 (stereo not drawn) .
inactive

Please share the test call associated with "COc1ccccc1C(=O)OCn1nnc2ccccc2c1=O" .
inactive

Please share the test call associated with CC(CN(C)Cc1ccccc1)OC(=O)c1ccc2c(c1)OCCO2 (stereo not drawn) .
inactive

Please share the test call associated with O=C(Cn1c(=O)n(CC2CCCO2)c(=O)c2ccccc21)c1ccccc1 (stereo not drawn) .
inactive

Please share the test call associated with "COc1ccc(Cl)cc1-c1n[nH]c(=S)o1" .
inactive

Please share the test call associated with "O=C(CN1C(=O)NC2(CCCCC2)C1=O)Nc1ccc(S(=O)(=O)N2CCOCC2)cc1" .
inactive

Please share the test call associated with "c1ccc(CCNc2ccc3nncn3n2)cc1" .
inactive

Please share the test call associated with "CCOC(=O)c1c(C)[nH]c(C)c1C(=O)COc1ccc(NC(=O)c2ccco2)cc1" .
inactive

Please share the test call associated with "COC(=O)CS(=O)(=O)c1nnc([C@H](Cc2ccccc2)NC(=O)OC(C)(C)C)o1" .
inactive

Please share the test call associated with CC(=O)NC(CCS(C)(=O)=O)C(=O)Nc1cccc(C)c1C (stereo not drawn) .
inactive

Please share the test call associated with "CCOC(=O)N1CCN(c2cc(=O)n(-c3cccc(Br)c3)c(=O)[nH]2)CC1" .
inactive

Please share the test call associated with "CCOc1ccc(-c2cc(C(=O)N3CCN(c4ccccn4)CC3)c3ccccc3n2)cc1" .
inactive

Please share the test call associated with "CCN1CCN(C(=O)C2CCN(C(=O)c3cc4sccc4n3CC)CC2)CC1" .
inactive

Please share the test call associated with CCOC(=O)C1CCCn2c1nc1sc3c(c1c2=O)CCCC3 (stereo not drawn) .
inactive

Please share the test call associated with "COC(=O)Nc1sc2c(c1C(N)=O)CCCCCC2" .
inactive

Please share the test call associated with "O=C(OCC(=O)N1CCC(Cc2ccccc2)CC1)c1ccc[nH]c1=O" .
inactive

Please share the test call associated with CC1CN(S(=O)(=O)c2ccc(Cl)c(C(F)(F)F)c2)CC(C)O1 (stereo not drawn) .
inactive

Please share the test call associated with "COc1ccc(NC(=O)CN(c2cc(C)cc(C)c2)S(=O)(=O)c2c(C)noc2C)cc1OC" .
inactive

Please share the test call associated with CC1CC(C)CN(c2ncnc3c2cnn3-c2ccc(Cl)cc2)C1 (stereo not drawn) .
inactive

Please share the test call associated with "Cn1c(CNc2nc(-c3ccccc3)cs2)nnc1SCC(=O)N1CCc2ccccc21" .
inactive

Please share the test call associated with "O=C(Nc1nnc(COc2ccc(F)cc2)s1)c1cccs1" .
inactive

Please share the test call associated with "CCOC(=O)/C=C1\CC(=O)Nc2nonc2N1" .
inactive

Please share the test call associated with "CCOC(=O)CN(C(=O)c1ccccc1)c1ccccc1C" .
inactive

----------
# PROTOCOL_DESCRIPTION: inhibitors of TNFa-induced NFkB p65 translocation, primary screen, imaging, HUVEC, MLSMR starter and 10KST1 sets (AID 438);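 note: compound added about 3h40 before a 20 min TNFalpha stimulation; signal is the nuclear over cytoplasmic p65 intensity ratio per well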
# DETAILS: HUVEC TNFa-induced p65 nuclear translocation; at 2 µM, active compounds read high, 0% TNFa-plus-vehicle, 100% no-TNFa wells
ATTRIBUTE_MEASURED: inhibition (%)
Give the quantity in %, number only.

I would be grateful if you could share the reported inhibition for "N#CCc1c(C#N)c(N)nc(N2CCN(S(=O)(=O)c3ccccc3)CC2)c1C#N" .
1.3

I would be grateful if you could share the reported inhibition for COCCCNC(=O)Cn1cc2c(n1)CCC(C)C2 (stereo unspecified) .
-6.1

I would be grateful if you could share the reported inhibition for "CN(C)c1nc(SCCOC(=O)c2ccccc2)nc(N(C)C)n1" .
-4.7

I would be grateful if you could share the reported inhibition for "Fc1cccc(Nc2cc(-n3cccn3)ncn2)c1" .
-8.3

I would be grateful if you could share the reported inhibition for CC1=C(C(N)=O)C(c2ccncc2)n2nc(-c3ccccc3Cl)nc2N1 (stereo unspecified) .
0

I would be grateful if you could share the reported inhibition for "O=C(Nc1ccc2c(c1)OCO2)OCc1ccccc1" .
1.6

----------
# PROTOCOL_DESCRIPTION: blockers of RIG-like receptor reporter activation – cell-based, Sendai virus stimulus, luciferase, 10K MLSCN set, TLR/RLR signaling modifier project, primary screen (AID 602276);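 note: firefly luciferase from ISG56 promoter only with Renilla not read in this screen; 0% = Sendai virus plus DMSO and 100% = medium plus DMSO without virus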
# DETAILS: HEK293 RL24 IRF3 luciferase reporter, at 10 µM, active compounds read high
ATTRIBUTE_MEASURED: inhibition (%)
Give the quantity in %, number only.

I would be grateful if you could share the reported inhibition for C=CCn1c(SCC(=O)NCC2CCCO2)nc2scc(-c3ccco3)c2c1=O (stereo not drawn) .
11.9

I would be grateful if you could share the reported inhibition for "CC1CCN(c2nc3c(c(=O)[nH]c(=O)n3C)n2CCSc2ncccn2)CC1" .
8.83

I would be grateful if you could share the reported inhibition for CCC(C(=O)N1CCc2cc(OC)c(OC)cc2C1)c1ccccc1 (stereo not drawn) .
3.51

I would be grateful if you could share the reported inhibition for COc1ccc2[nH]c(=O)c(CN(CC3CCCO3)C(=O)Nc3ccc(F)cc3)cc2c1 (stereo not drawn) .
-18.3

I would be grateful if you could share the reported inhibition for "CCCCOc1ccc(CSc2n[nH]c(C)n2)cc1" .
-55.7

I would be grateful if you could share the reported inhibition for "c1cc(CNc2ccc3c(c2)OCO3)ccn1" .
-9.22

I would be grateful if you could share the reported inhibition for "Cc1ccc2c(CNCc3ccco3)cc(=O)oc2c1" .
-18.6

I would be grateful if you could share the reported inhibition for Nc1nc2n(n1)C(c1cccc(Br)c1)CC(c1ccccc1)N2 (stereo not drawn) .
13.2

I would be grateful if you could share the reported inhibition for "Nc1nc(N2CCCCC2)nc(N(c2ccccc2)c2ccccc2)n1" .
10.2

I would be grateful if you could share the reported inhibition for "O=C(C(c1ccccc1)c1ccccc1)N1CCN(Cc2ccccn2)CC1" .
5.9

I would be grateful if you could share the reported inhibition for "Oc1ccc2ccccc2c1CN1CCN(c2ccccc2F)CC1" .
9.17

I would be grateful if you could share the reported inhibition for "Cc1cc(C)nc(SC2=CS(=O)(=O)c3ccccc32)n1" .
9.85

I would be grateful if you could share the reported inhibition for "CCCn1c(SCC(=O)N2CCN(c3ccccc3)CC2)nc2ccccc2c1=O" .
-9.23

I would be grateful if you could share the reported inhibition for O=C(COC(=O)c1ccccc1Oc1ccccc1)NC1CCS(=O)(=O)C1 (stereo not drawn) .
8.04

I would be grateful if you could share the reported inhibition for "O=C(CSc1nnnn1-c1ccccc1)c1cc2ccccc2oc1=O" .
1.78

I would be grateful if you could share the reported inhibition for CC(CN1CCCCC1)OC(=O)c1ccc(Cl)cc1Cl (stereo not drawn) .
-18.5

I would be grateful if you could share the reported inhibition for "CC(C)Cn1c(N)c(C(=O)COC(=O)c2cc(-c3ccco3)nc3ccccc23)c(=O)n(C)c1=O" .
15.4

I would be grateful if you could share the reported inhibition for COc1ccccc1NC(=O)CSc1nnc(-c2ccncc2)n1CC1CCCO1 (stereo not drawn) .
14.4

Values from PubChem BioAssay
